Activity reference
tested on: Earias vittella; assay: Antifeedant activity against third-instar larval stage of Earias vitella assessed as decrease in diet consumption at 10 ug/cm3 administered through artificial diet containing Abelmoschus esculentus seed powder after 24 hr relative to acetone-treated control; format: functional; parameters: scale not given: the % may be the effect or the level left
Record the result as number plus unit.

Previously resolved entries follow.
Request: Given the molecule CC(=O)OC[C@@]12[C@@H](OC(C)=O)C[C@@H](C)[C@](C)([C@@H]3C[C@H]4CC(O)O[C@H]4O3)[C@H]1CC[C@H](OC(C)=O)[C@]21CO1 (some centres undefined) [15-HYDROXYEPICARYOPTIN] , what is its reported Activity?
Result: 71.84%

Request: Given the molecule CC[C@@](C)(OC(C)=O)C(=O)O[C@H]1[C@H](O)C[C@@H]2[C@@](C)([C@@H]3C[C@H]4C=CO[C@H]4O3)[C@H](C)C[C@H](OC(C)=O)[C@@]2(COC(C)=O)[C@@]12CO2 , what is its reported Activity?
Result: 82.14%

Request: Given the molecule CC(=O)OC[C@@]12[C@@H](OC(C)=O)C[C@@H](C)[C@](C)([C@@H]3C[C@H]4C=CO[C@H]4O3)[C@H]1CC[C@H](OC(C)=O)[C@]21CO1 [3-EPICARYOPTIN] , what is its reported Activity?
Result: 79.76%

Then there is this molecule:
Request: Given the molecule CC(=O)OC[C@@]12[C@@H](OC(C)=O)C[C@@H](C)[C@](C)([C@@H]3C[C@H]4C=CO[C@H]4O3)[C@H]1CCC[C@]21CO1 , what is its reported Activity?
Result: 72.13%
